- system: equine FcRn (large alpha subunit p51) / equine beta-2-microglobulin complex, biotinylated (equine) (UniProt P30441)
- protocol summary: SPR (Biacore), pH 6
metric name: Kd (nM)
Answers are plain numbers, in nM.

Returns the measured Kd for the input binder. Input: equine IgG1 Y436H (antibody, part only; not given: variable domains, not shown: another chain or arm of the molecule) constant: ASTTAPKVFALAPGCGTTSDSTVALGCLVSGYFPEPVKVSWNSGSLTSGVHTFPSVLQSSGFYSLSSMVTVPASTWTSETYICNVVHAASNFKVDKRIEPIPDNHQKVCDMSKCPKCPAPELLGGPSVFIFPPNPKDTLMITRTPEVTCVVVDVSQENPDVKFNWYMDGVEVRTATTRPKEEQFNSTYRVVSVLRIQHQDWLSGKEFKCKVNNQALPQPIERTITKTKGRSQEPQVYVLAPHPDELSKSKVSVTCLVKDFYPPEINIEWQSNGQPELETKYSTTQAQQDSDGSYFLYSKLSVDRNRWQQGTTFTCGVMHEALHNHHTQKNVSKNPGK
19.1
